assay: qHTS assay to identify small molecule antagonists of the estrogen receptor alpha (ER-alpha) signaling pathway using the BG1 cell line - cell viability counter screen (AID 743081); settings: BG1Luc4E2 viability, CellTiter-Fluor, 22 h; series mostly up to 70.3 µM;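 further: compound given together with 17beta-estradiol as the ER stimulus; nearly all actives have a fitted effect of over 45% in size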
Inconclusive results are not listed. The source made the active and inactive calls. The call rests on the fitted dose curve; in most records, active means well fitted cell-killing curve with a large enough effect in the repeat runs; inconclusive means weak or mixed curves, or effect the other way; inactive means flat fitted curve, though single readings scatter.
Give one outcome, nothing more. List: active, inactive

For CCCCP(CCCC)CCCC , what call appears in the results of this test? inactive

Also need CCOP(=S)(OCC)Oc1nc(Cl)n(C(C)C)n1 , thanks. inactive

Also need O=[N+]([O-])c1cccc(O)c1 , thanks. inactive

Also need CN1CCC(O)(c2ccc(F)cc2)C(C(=O)c2ccc(F)cc2)C1 (stereo not given) , thanks. inactive

Also need ClC(Br)Br , thanks. inactive

Also need CCS(=O)(=O)C(C)(C)S(=O)(=O)CC , thanks. inactive

Also need CCCCOP(=O)(O)OCCCC , thanks. inactive

Also need O=C(O)c1cccc(Cl)c1 , thanks. inactive

Also need CN/C(=N\[N+](=O)[O-])NCC1CCOC1 (stereo not given) , thanks. inactive

Also need CC1CCCCC1NC(=O)Nc1ccccc1 (stereo not given) , thanks. inactive

Also need ClC(Cl)C(Cl)Cl , thanks. inactive

Also need NC(=O)c1cc([N+](=O)[O-])cc([N+](=O)[O-])c1 , thanks. inactive

Also need CC(C)(C)C(=O)C(Oc1ccc(Cl)cc1)n1cncn1 (stereo not given) , thanks. inactive

Also need CN1CCN(C(=O)O[C@H]2c3nccnc3C(=O)N2c2ccc(Cl)cn2)CC1 , thanks. inactive

Also need CCNc1nc(NC(C)C)nc(OC)n1 , thanks. inactive

Also need N#CCBr , thanks. inactive

Also need O=C(CCN1CC1)OCC(CO)(COC(=O)CCN1CC1)COC(=O)CCN1CC1 , thanks. inactive

Also need CC(Cl)(Cl)[N+](=O)[O-] , thanks. inactive

Also need Nc1cnn(-c2ccccc2)c(=O)c1Cl , thanks. inactive

Also need NC1=NC(=O)C(c2ccccc2)O1 (stereo not given) , thanks. inactive

Also need OC(c1ccccc1)(c1ccccc1)C1CCNCC1 , thanks. inactive

Also need COc1ccc(C(=O)N2CCCC2=O)cc1 , thanks. inactive

Also need CCCCOC(=O)c1ccccc1C(=O)O , thanks. inactive

Also need CCOC(=O)/C=C(C)/C=C/C[C@@H](C)CCCC(C)C , thanks. inactive

Also need N#CC(Cl)(Cl)Cl , thanks. inactive

Also need CC1(C(=O)Nc2ccc(O)c(Cl)c2Cl)CCCCC1 , thanks. inactive

Also need CCCSC(=O)Cl , thanks. inactive

Also need COc1cccc2c1cc([N+](=O)[O-])c1c(C(=O)O)cc3c(c12)OCO3 , thanks. active

Also need ClCC(Cl)Cl , thanks. inactive

Also need [Cl][Sn]([Cl])([Cl])[Cl] , thanks. inactive

* * *

Target: Voltage-gated inwardly rectifying potassium channel KCNH2 (Homo sapiens) (UniProt Q12809)
Sequence (Q12809 whole entry, looked up): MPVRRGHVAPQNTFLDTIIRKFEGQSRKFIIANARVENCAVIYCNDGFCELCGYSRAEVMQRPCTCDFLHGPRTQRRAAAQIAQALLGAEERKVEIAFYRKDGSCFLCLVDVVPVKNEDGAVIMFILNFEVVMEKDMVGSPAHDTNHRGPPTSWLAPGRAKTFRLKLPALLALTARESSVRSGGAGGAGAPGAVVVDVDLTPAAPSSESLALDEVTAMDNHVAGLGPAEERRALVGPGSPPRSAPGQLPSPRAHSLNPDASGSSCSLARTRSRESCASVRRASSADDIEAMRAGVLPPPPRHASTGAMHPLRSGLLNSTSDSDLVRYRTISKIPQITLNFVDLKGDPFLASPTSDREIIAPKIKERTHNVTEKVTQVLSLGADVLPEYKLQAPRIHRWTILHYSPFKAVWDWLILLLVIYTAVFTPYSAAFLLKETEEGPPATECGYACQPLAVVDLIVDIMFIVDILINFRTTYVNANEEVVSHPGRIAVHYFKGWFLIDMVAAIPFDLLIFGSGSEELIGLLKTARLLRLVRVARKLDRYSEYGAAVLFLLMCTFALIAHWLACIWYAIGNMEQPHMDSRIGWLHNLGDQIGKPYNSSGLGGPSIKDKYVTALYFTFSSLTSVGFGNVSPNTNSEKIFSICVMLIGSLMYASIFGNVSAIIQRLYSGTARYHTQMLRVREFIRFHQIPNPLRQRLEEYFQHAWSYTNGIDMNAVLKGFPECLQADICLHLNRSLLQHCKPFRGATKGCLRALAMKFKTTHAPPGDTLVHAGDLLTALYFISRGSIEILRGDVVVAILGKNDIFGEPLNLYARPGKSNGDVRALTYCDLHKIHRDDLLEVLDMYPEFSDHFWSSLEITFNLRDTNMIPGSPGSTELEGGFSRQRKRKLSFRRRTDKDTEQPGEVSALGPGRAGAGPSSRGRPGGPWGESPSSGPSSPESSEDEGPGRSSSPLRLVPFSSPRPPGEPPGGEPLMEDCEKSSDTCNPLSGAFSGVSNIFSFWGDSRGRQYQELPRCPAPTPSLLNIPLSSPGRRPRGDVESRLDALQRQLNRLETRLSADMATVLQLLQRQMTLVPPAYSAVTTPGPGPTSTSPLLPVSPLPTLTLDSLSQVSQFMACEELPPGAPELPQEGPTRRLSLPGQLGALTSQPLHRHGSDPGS
Assay: Human Ether-a-go-go-Related Gene (hERG) channel small molecule antagonists: fluorescence cell-based qHTS assay (AID 1671200);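 further: hERG-expressing U2OS cells given a thallium stimulus after FluxOR II dye loading; nearly all actives have a fitted effect of over 50% in size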
Conditions: hERG-U2OS cells, FluxOR thallium flux fluorescence; series mostly up to 76.8 µM
Source text: National Center for Advancing Translational Sciences [NCATS] U.S. Environmental Protection Agency [EPA] National Institutes of Environmental Health Sciences [NIEHS] National Toxicology Program [NTP] U.S. Food and Drug Administration [FDA] Mutations in the hERG channel cause Long QT (LQT) syndrome. LQT syndrome is a cardiac disorder which can cause ventricle arrhythmia and sudden death. Additionally, compounds which block the hERG channel can cause acquired LQT syndrome. […]
Inconclusive results are not listed. Calls of active or inactive are those of the source. The call rests on the fitted dose curve; in most records, active means well fitted inhibition curve with a large enough effect in the repeat runs; inconclusive means weak or mixed curves; inactive means flat fitted curve, though single readings scatter.
value.type: outcome

• C[C@]1(O)CC[C@H]2[C@@H]3CCC4=CC(=O)CC[C@]4(C)[C@@]3(F)[C@@H](O)C[C@@]21C = inactive
• BrCCCCCCBr = inactive
• CC(C)NCC(O)c1ccc(N)c(C#N)c1 (stereo not drawn) = inactive
